# System: SK-N-MC neuroepithelioma cells
# EXPERIMENTAL_PROTOCOL: MTT assay, inhibition of growth of SK-N-MC cells
# Type: cell-based, Human
# MEASUREMENT_SETUP: Homo sapiens, SK-N-MC, 72 h, medium with diferric transferrin 1.25 μM, mean ± SD (three experiments), read-out: IC50 at inhibiting the growth of SK-N-MC neuroepithelioma cells
# Method: Human SK-N-MC neuroepithelioma cells were obtained from the American Type Culture Collection (ATCC; Manassas, VA). The SK-N-MC cell type was grown as described previously.[51] The effect of complexes [1a,b]Cl–[3a,b]Cl on the cellular proliferation of SK-N-MC cells was examined using the 1-(4,5-dimethylthiazol-2-yl)-2,5-diphenyl-tetrazolium (MTT) assay by standard techniques.[52],[53] […]
READOUT: IC50 (µM)

1: CC(=O)N(O)CCCCCNC(=O)CCC(=O)N(O)CCCCCNC(=O)CCC(=O)N(O)CCCCCN [DFO, desferrioxamine, reference compound]
2: COc1cccc2c1C(=O)c1c(O)c3c(c(O)c1C2=O)C[C@@](O)(C(=O)CO)C[C@@H]3O[C@H]1C[C@H](N)[C@H](O)[C@H](C)O1 [DOX, doxorubicin, reference compound]
Asked: Just curious, which one has the larger IC50 reading, 1 or 2 ? Mark your selection by writing its label.
Given back: 1
(1: 9.83 µM, 2: 0.15 µM)
